Origin of measurements: patent US4851426A

# System: stomach ulcers in rats
# PROCEDURE_SUMMARY: Ulcerogenicity
# Format: in vivo, rat
# Set-up: key: ulcer index = mean sum of individual lesion lengths per rat
# CONDITION: ulcerogenic index max
# Experimental: Methods: Six groups of 10 female Charles River rats weighing 170-230 g were used for each drug. […] Drugs were freshly suspended in water with 1% carboxymethyl cellulose and administered by stomach tube. […] Ulcers were evaluated under a magnifying lens, after the stomach had been dissected out, opened along the lesser curvature and rinsed. Ulcer index (UI) for each group was calculated as the mean sum of the lengths of the individual lesions in each rat. […]
OBSERVED_PROPERTY: UI max
Give bare numbers.

Some compounds with recorded UI max:
- CCOC(=O)OC(C)OC(=O)Cc1ccccc1Nc1c(Cl)cccc1Cl (stereo not drawn) [Diclofenac-ECOE ester]: 34.9
- CCOC(=O)OC(C)OC(=O)Cc1c(C)n(C(=O)c2ccc(Cl)cc2)c2ccc(OC)cc12 (stereo not drawn) [Indomethacin-ECOE ester]: 42.0
- COc1ccc2cc([C@H](C)C(=O)O)ccc2c1 [Naproxen, reference compound]: 62.0
- CCOC(=O)OC(C)OC(=O)C(C)c1ccc(CC(C)C)cc1 (stereo not drawn) [Ibuprofen-ECOE ester]: 26.0
- CCOC(=O)OC(C)OC(=O)C(C)c1ccc2cc(OC)ccc2c1 (single isomer, unassigned; (+)) [Naproxen-ECOE ester]: 65.0

What the record says about CCOC(=O)OC(C)OC(=O)c1ccccc1OC(C)=O (stereo not drawn) [Aspirin-ECOE ester] : UI max is 40.9

* * *

# PROCEDURE_SUMMARY: hydrolysis in aqueous acidic medium (simulated gastro-intestinal juices), HPLC
# Assay type: physicochemical
# CONDITION: 150 min; THF: aqueous conc. HCl 1:1, 37° C.; read-out: Ester (%)
OBSERVED_PROPERTY: remaining at 2.5 h (%)
Numbers only, in %.

response.value for CCOC(=O)OC(C)OC(=O)c1ccccc1OC(C)=O (stereo not shown) (field: remaining at 2.5 h) = 84

* * *

Assignment: determine reported UI max for the given compounds.
# Test system: stomach ulcers in rats
# PROCEDURE_SUMMARY: Ulcerogenicity
# Assay type: in vivo, rat
# CONDITION: rat, in vivo

• CC(=O)Oc1ccccc1C(=O)O [Aspirin, 2-(acetyloxy)benzoic acid, reference compound] = 92.6
• O=C(O)Cc1ccccc1Nc1c(Cl)cccc1Cl [Diclofenac, reference compound] = 61.8

Quick one: give me UI max for each item below, same order please.
1. COc1ccc2c(c1)c(CC(=O)O)c(C)n2C(=O)c1ccc(Cl)cc1 [Indomethacin, reference compound]
2. CC(C)Cc1ccc(C(C)C(=O)O)cc1 (stereo not shown) [Ibuprofen, reference compound]

A:
[60, 52.0]

* * *

Task for the reader: assign each of the following compounds its reported Slope.
# Tested on: stomach ulcers in rats
# PROCEDURE_SUMMARY: Ulcerogenicity
# Type: in vivo, rat
# CONDITION: dose-response of ulcer index, female rats, oral, 5 hours
Give bare numbers, in Uxkg/mmole.

Guide cases for Slope, answers given:
* CCOC(=O)OC(C)OC(=O)C(C)c1ccc2cc(OC)ccc2c1 (single isomer, unassigned; (+)) | 63.5
* CCOC(=O)OC(C)OC(=O)Cc1ccccc1Nc1c(Cl)cccc1Cl (stereo not drawn) | 21.1
* CCOC(=O)OC(C)OC(=O)c1ccccc1OC(C)=O (stereo not drawn) | 13.7
* CCOC(=O)OC(C)OC(=O)Cc1c(C)n(C(=O)c2ccc(Cl)cc2)c2ccc(OC)cc12 (stereo not drawn) | 34
* COc1ccc2cc([C@H](C)C(=O)O)ccc2c1 [Naproxen, reference compound] | 41.0

Consider CCOC(=O)OC(C)OC(=O)C(C)c1ccc(CC(C)C)cc1 (stereo not drawn) . Its measured Slope is 36.7

* * *

# Tested on: stomach ulcers in rats
# PROCEDURE_SUMMARY: Ulcerogenicity
# Format: in vivo, rat
# CONDITION: dose causing max ulcerogenic index
OBSERVED_PROPERTY: UD max (mmol/kg)
Give bare numbers, in mmol/kg.

These solved cases illustrate the format of a correct answer.
- CCOC(=O)OC(C)OC(=O)c1ccccc1OC(C)=O (stereo not drawn): 0.4
- CCOC(=O)OC(C)OC(=O)Cc1c(C)n(C(=O)c2ccc(Cl)cc2)c2ccc(OC)cc12 (stereo not drawn): 0.32
- CCOC(=O)OC(C)OC(=O)C(C)c1ccc2cc(OC)ccc2c1 (single isomer, unassigned; (+)): 1.0
- CCOC(=O)OC(C)OC(=O)C(C)c1ccc(CC(C)C)cc1 (stereo not drawn): 0.7

# batch size: 2; output UD max per entry
1. COc1ccc2cc([C@H](C)C(=O)O)ccc2c1 [Naproxen, reference compound]
2. CCOC(=O)OC(C)OC(=O)Cc1ccccc1Nc1c(Cl)cccc1Cl (stereo not drawn)

A:
2.0
0.6
